target: Mushroom Tyrosinase (Sigma T3824); experiment: General in vitro tyrosinase inhibition assay (L-Dopa oxidation to dopachrome); details: 0.5 mM L-Dopa, pH 7.0, 30° C., 475 nm, 18 Units Mushroom Tyrosinase
READOUT NAME: EC50 (µM)

Worked examples follow.
C[C@H](CSc1cc(O)ccc1O)C(=O)N1CCC[C@H]1C(=O)O : 12200
CC(C)(Sc1cc(O)ccc1O)C(N)C(=O)O (stereo not drawn) : 70

P = N[C@@H](CSc1cc(O)ccc1O)C(=O)O
Q = CCOC(=O)[C@@H](N)CSc1cc(O)ccc1O
R = OCCCCCCSc1cc(O)ccc1O
Data request: Rank by EC50 (largest to smallest). The response must list the labels following the requested ordering.
Data returned: Q, P, R
(Q: 250 µM, P: 20 µM, R: 10 µM)

I = Oc1ccc(O)cc1 [Hydroquinone, hydroquinone]
II = CCOC(=O)CSc1cc(O)ccc1O
Data request: I would appreciate it if you could say which entry, I or II , has the lower EC50 value. Answer with the label corresponding to your selection.
Data returned: I
(I: 620 µM, II: 3280 µM)

A = N[C@H](CSc1cc(O)ccc1O)C(=O)O
B = CC(=O)N[C@@H](CSc1cc(O)ccc1O)C(=O)O
Data request: I would appreciate it if you could say which entry, A or B , has the lower EC50 value. Answer with the label corresponding to your selection.
Data returned: A

====

biological target: Mushroom Tyrosinase (Sigma T3824); test: General in vitro tyrosinase inhibition assay (L-Dopa oxidation to dopachrome); conditions: 0.5 mM L-Dopa, pH 7.0, 30° C., 475 nm, 18 Units Mushroom Tyrosinase
pEC50: −log10 of the molar value.
READOUT NAME: pEC50

Worked examples follow.
O=C(O)CSc1cc(O)ccc1O : 2.03
CC(=O)C(C)Sc1cc(O)ccc1O (stereo not drawn) : 3.51
COC(=O)[C@@H](N)CSc1cc(O)ccc1O : 3.89
NC(CCC(=O)NC(CSc1cc(O)ccc1O)C(=O)NCC(=O)O)C(=O)O (stereo not drawn) : 1.98

1 = Oc1ccc(O)c(SCc2cccs2)c1
2 = Cc1nc(Sc2cc(O)ccc2O)sc1CC(=O)O
Data request: I would appreciate it if you could say which entry, 1 or 2 , has the lower pEC50 value. Answer with the label corresponding to your selection.
Data returned: 2
(2: 3.28, 1: 3.70)
